Listed compounds paired with reported half-life
Assay: Terminal half life in human at 60 mg, po by LC-MS/MS method
Format: ADME, organism-based
Conditions: in vivo, read-out: beta t1/2 (converted)
Report the figure in min without appending any unit label.

In: Item COc1cc(O)c(CC=C(C)C)c(O)c1C(=O)/C=C/c1ccc(O)cc1 : provide half-life
Out: 1200

In the following, a different compound is considered.
In: Item CC(C)=CCc1c(O)cc(O)c2c1OC(c1ccc(O)cc1)CC2=O (configuration not stated) : provide half-life
Out: 1200

* * *

Biological target: Cytochrome P450 2D6 (Homo sapiens, UniProt P10635)
Sequence (P10635 whole entry): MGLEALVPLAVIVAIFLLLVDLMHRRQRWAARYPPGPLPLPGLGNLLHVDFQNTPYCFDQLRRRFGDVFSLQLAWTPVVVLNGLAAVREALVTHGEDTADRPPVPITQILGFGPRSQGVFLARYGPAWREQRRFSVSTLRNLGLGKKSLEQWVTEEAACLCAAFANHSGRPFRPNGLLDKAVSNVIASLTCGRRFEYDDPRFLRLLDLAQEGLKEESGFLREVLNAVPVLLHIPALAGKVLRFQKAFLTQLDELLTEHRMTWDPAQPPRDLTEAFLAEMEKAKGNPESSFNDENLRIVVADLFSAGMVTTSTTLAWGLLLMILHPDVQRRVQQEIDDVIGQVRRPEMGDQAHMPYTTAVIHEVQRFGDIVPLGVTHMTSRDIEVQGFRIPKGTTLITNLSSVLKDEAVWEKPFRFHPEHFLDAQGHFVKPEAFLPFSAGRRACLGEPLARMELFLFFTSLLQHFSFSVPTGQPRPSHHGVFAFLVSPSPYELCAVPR
Assay: Competitive inhibition of CYP2D6 (unknown origin) using dextromethorphan substrate
Assay type: ADME
Attribute measured: pKi
# log scale: pKi equals minus log10 of the concentration in mol/L

In: Item COc1ccc2c(c1OC)CN(C)CCc1cc3c(cc1C(=O)C2)OCO3 [ALLOCRYPTOPINE] : provide pKi
Out: 6.91

* * *

Assay: Oral bioavailability in human
Type: ADME, organism-based
Settings: in vivo
Attribute measured: bioavailability

In: Item COc1cc([C@H]2Oc3cc([C@H]4Oc5cc(O)cc(O)c5C(=O)[C@@H]4O)ccc3O[C@@H]2CO)ccc1O [SILYBIN A] : provide bioavailability
Out: < 0.5%

In the following, a different compound is considered.
In: Item COc1cc([C@@H]2Oc3cc([C@H]4Oc5cc(O)cc(O)c5C(=O)[C@@H]4O)ccc3O[C@H]2CO)ccc1O [SILYBIN B] : provide bioavailability
Out: < 0.5%

Reference source for all entries: ChEMBL document CHEMBL3632590
